# viability (% of control) values compiled below
Test: High-throughput drug toxicity screening in the BPDCN cell line Cal-1 (AID 1224825);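 also: cells exposed to compounds for 48 h; 100% = DMSO and 0% = bortezomib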
Conditions: Cal-1 BPDCN cell viability, qHTS; at 45.8 µM (top of the series) unless noted

NC(=O)Cc1cccc(C(=O)c2ccccc2)c1N: 114%
C[C@H](Cn1cnc2c(N)ncnc21)OCP(=O)(O)O: 130%
Cc1cccc(CN2CCN(C(c3ccccc3)c3ccc(Cl)cc3)CC2)c1 (stereo unspecified): 94%
Cc1cc(C2CCCCC2)n(O)c(=O)c1: 5.31%

Task: Can you share its viability (% of control)? I mean this compound: CC[C@]1(O)C[C@H]2CN(CCc3c([nH]c4ccccc34)[C@@](C(=O)OC)(c3cc4c(cc3OC)N(C=O)[C@H]3[C@@](O)(C(=O)OC)[C@H](OC(C)=O)[C@]5(CC)C=CCN6CC[C@]43[C@@H]65)C2)C1
Result: 10.9%

Task: Reported viability (% of control), compound Nc1ccc(S(N)(=O)=O)cc1 : ____
Result: 112%

Task: // returns reported viability (% of control) for input NCCCCNCCCN
Result: 3.12%

Task: Fill in the blank: the reported viability (% of control) of CN1CCC(=C2c3ccccc3CCc3sccc32)CC1 is ____.
Result: 69%

Task: Look at this compound and give its reported viability (% of control). NNc1nncc2ccccc12
Result: 104%

Task: Could you tell me which viability (% of control) is on file for Cc1cccc(C#Cc2ccccc2)n1 ?
Result: 57.2%

Task: Please look up its viability (% of control): COCCCN1CCC(NC(=O)c2cc(Cl)c(N)c3c2OCC3)CC1
Result: 76.6%

###

Assay: qHTS of pediatric cancer cell lines to identify multiple opportunities for drug repurposing: Primary screen for MG 63 (6-TG R) cells (AID 1347105); also: nearly all actives have a fitted effect of over 50% in size
Conditions: MG 63 (6-TG R) viability, CellTiter-Glo, 48 h; series mostly up to 46 µM
Inconclusive results are not listed. The source made the active and inactive calls. The call rests on the fitted dose curve; in most records, active means well fitted cell-killing curve with a large enough effect; inconclusive means small, poorly fitted or top-dose-only effect; inactive means no such curve, though single readings can be large or run the other way.
Would you mind answering with one of these outcomes? active, inactive

Task: Please indicate how the test categorized Nc1nc(OCc2ccccc2)c2[nH]cnc2n1 .
Result: inactive

Task: GET /call?item= Nc1nc(Cl)nc2c1ncn2[C@H]1C[C@H](O)[C@@H](CO)O1 returns the recorded outcome of this test.
Result: active

Task: Please share the test call associated with CCN(CC)CCOc1ccc(Nc2ncc3cc(-c4c(Cl)cccc4Cl)c(=O)n(C)c3n2)cc1 .
Result: active

Task: Fill in: this test's call for CN(C)C(=O)COC(=O)Cc1ccc(OC(=O)c2ccc(N=C(N)N)cc2)cc1 is ___
Result: inactive

Task: Given N[C@@H](Cc1cc(I)c(Oc2cc(I)c(O)c(I)c2)c(I)c1)C(=O)O , state the outcome it received in this test.
Result: inactive

Task: I would be grateful if you could indicate the recorded call for CCCCCCCCCCCCCCCCCCCCCCO .
Result: inactive

Task: What call does the record list for CCN(CC)CCOc1ccc(Cc2ccccc2)cc1 ?
Result: inactive

Task: Give the logged outcome of this assay for the following compound: CCCCC(CC)COC(=O)C(C#N)=C(c1ccccc1)c1ccccc1 (configuration not stated)
Result: inactive

Task: Dear colleague, could you share the recorded outcome for CC1(C)CCC(C)(C)c2cc(NC(=O)c3ccc(C(=O)O)cc3)ccc21 when you have a moment?
Result: inactive

Task: Could you check what this test reported for CCC(C)(Oc1ccc(C2(c3ccc(OC(C)(CC)C(=O)O)cc3)CCCCC2)cc1)C(=O)O (configuration not stated) ?
Result: inactive

Task: Name the outcome recorded for CNC[C@@H](O)[C@@H](O)[C@H](O)[C@H](O)CO in the assay.
Result: inactive

Task: Fill in: this test's call for Cc1cc2c(s1)Nc1ccccc1N=C2N1CCN(C)CC1 is ___
Result: inactive

Task: Recorded call for COc1c2occc2cc2ccc(=O)oc12 ?
Result: inactive

Task: What did the test return for CC1(C)C(=O)N(CCN2CCC(C(=O)c3ccc(F)cc3)CC2)c2ccccc21 ?
Result: inactive

Task: Would you mind telling me which call this test gave CCN(CC)C(=S)SSC(=S)N(CC)CC ?
Result: active

Task: Hey, what did the test say about CCOc1cc(CC(=O)N[C@@H](CC(C)C)c2ccccc2N2CCCCC2)ccc1C(=O)O ?
Result: inactive

Task: Test call for this compound, please: Cc1cc(=O)oc2cc(O)ccc12
Result: inactive

Task: Each compound tested received a call. Report the one for O=C(CS(=O)Cc1ccco1)NCC=CCOc1cc(CN2CCCCC2)ccn1 (configuration not stated) .
Result: inactive

Task: For this compound, state the assay outcome: NS(=O)(=O)c1cc(C(=O)O)c(NCc2ccco2)cc1Cl
Result: inactive

Task: Hi, sorry to bother you, what did the test record for COc1ccc2cc([C@H](C)C(=O)O)ccc2c1 ?
Result: inactive

Task: Recorded test outcome, item CN(C)CCCC1(c2ccc(F)cc2)OCc2cc(C#N)ccc21 (configuration not stated)
Result: inactive

###

Assay: Quantitative High-Throughput drug screen in 47 multiple myeloma cell lines against the NCATS MIPE library collection: SKMM1_PLB cell viability assay (AID 1919863); also: potency is read from the fitted curve at half-maximal effect; nearly all actives have a fitted effect of over 35% in size
Conditions: SKMM1 myeloma viability, CellTiter-Glo ATP, 48 h
Results filed as inconclusive are left out. Activity calls are given as the source filed them. The call rests on the fitted dose curve; in most records, active means well fitted cell-killing curve with a large enough effect; inconclusive means small, poorly fitted or top-dose-only effect, or effect the other way; inactive means no such curve, though single readings can be large or run the other way.
Reported values of Potency for individual entries

Here are 4 compounds together with their reported answers.
CC(=O)O[C@H]1C(=O)[C@@]2(C)C([C@H](OC(=O)c3ccccc3)[C@]3(O)C[C@H](OC(=O)[C@H](O)[C@@H](NC(=O)c4ccccc4)c4ccccc4)C(C)=C1C3(C)C)[C@]1(OC(C)=O)CO[C@@H]1C[C@@H]2O (some centres undefined): 0.0033 µM (active)
N=C(N)c1ccc2cc(OC(=O)c3ccc(N=C(N)N)cc3)ccc2c1: 8.33 µM (active)
Cc1cc2cc3c(C)cc(=O)oc3c(C)c2o1: 26.4 µM (active)
Clc1ccc(C(Cn2ccnc2)OCc2c(Cl)cccc2Cl)c(Cl)c1 (centres undefined): 26.4 µM (active)

We now examine a further compound.
Task: Look up Potency for this compound: CCCCCCCCOc1ccccc1C(=O)Nc1ccc(C(=O)OCC[N+](C)(CC)CC)cc1
Result: 26.4 µM (active)

###

Assay: Drug repurposing screens with cells derived from glioblastoma tumor samples (AID 1345199); also: % is scaled to controls: 0 for no effect and ±100 for the full control effect; nearly all actives have a fitted effect of over 40% in size
Settings: GBM patient neurospheres viability, ATP luminescence, 48 h; at 45.9 µM (top of the series); tumour line B
Description: CD133+ cells were isolated from GBM patient biopsies and cultured as neurospheres. Neurospheres from four patients were used to screen the NCATS pharmaceutical collection (NPC) library of approved drugs and bioactive compounds. […] The neurospheres were incubated with drugs for 48 hours in 1536-well format, then assayed with an ATP content cell viability assay. […]
Inconclusive results are not listed.
activity, negative = cell killing less than -20% is True; activity, negative = cell killing greater than or equal to -20% is False.

Worked set:
CNC[C@H](O)c1ccc(O)c(O)c1: False
Nc1ncn([C@H]2C[C@H](O)[C@@H](CO)O2)c(=O)n1: True
Cc1cccc(C)c1OCC(=O)N[C@@H](Cc1ccccc1)[C@@H](O)C[C@H](Cc1ccccc1)NC(=O)[C@H](C(C)C)N1CCCNC1=O: False
Cc1ccc(C(=O)c2cc(O)c(O)c([N+](=O)[O-])c2)cc1: False

Task: Record CC1(C)CCC(C)(C)c2cc(NC(=O)c3ccc(C(=O)O)cc3)ccc21 : is its activity, negative = cell killing strictly below -20%?
Result: False

Task: Field: below-cutoff. Rule: recorded activity, negative = cell killing strictly less than -20%. Subject: O=c1oc2cc(O)ccc2s1
Result: True

Task: Hi there! Is activity, negative = cell killing for Cn1c(NCCN(CCO)CCCc2ccc([N+](=O)[O-])cc2)cc(=O)n(C)c1=O below -20%, do you know?
Result: False

Task: Identify whether the compound CC(C)(S)[C@@H](N)C(=O)O records activity, negative = cell killing below -20%.
Result: False

Task: Problem: For the compound O=C(OC1C[C@H]2CC[C@@H](C1)[N+]21CCCC1)C(O)(c1ccccc1)c1ccccc1 (stereo not given in full) , is activity, negative = cell killing under -20%?
Result: False

Task: I wonder whether CC1=C(C(=O)O)N2C(=O)[C@@H](NC(=O)[C@H](N)C3=CCC=CC3)[C@H]2SC1 has activity, negative = cell killing below -20%. Can you tell?
Result: False

###

Test: Quantitative High-Throughput drug screen in 47 multiple myeloma cell lines against the NCATS MIPE library collection: Delta47_JCRB cell viability assay (AID 1918925; also: nearly all actives have a fitted effect of over 45% in size)
Details: Delta47 myeloma viability, CellTiter-Glo ATP, 48 h; series mostly up to 45.8 µM
Records with an inconclusive call do not appear. Activity calls are given as the source filed them. The call rests on the fitted dose curve; in most records, active means well fitted cell-killing curve with a large enough effect; inconclusive means small, poorly fitted or top-dose-only effect, or effect the other way; inactive means no such curve, though single readings can be large or run the other way.
Return exactly one item of 1.0 = active, 0.0 = inactive

Known results for molecules:
COc1cc2c(cc1OC)C1CC(=O)C(CC(C)C)CN1CC2 (configuration not stated): 0.0
Nc1nc(Cl)nc2c1ncn2[C@H]1C[C@H](O)[C@@H](CO)O1: 1.0
CC1(C)C(=O)N(CCN2CCC(C(=O)c3ccc(F)cc3)CC2)c2ccccc21: 1.0
CCC1=C(C)CN(C(=O)NCCc2ccc(S(=O)(=O)NC(=O)NC3CCC(C)CC3)cc2)C1=O (configuration not stated): 0.0
Cc1cccc(CN2CCN(C(c3ccccc3)c3ccc(Cl)cc3)CC2)c1 (configuration not stated): 1.0

Task: Name the outcome recorded for CN(C)[C@@H](CCOc1cccc2ccccc12)c1ccccc1 in the assay.
Result: 1.0

Task: What call does the record list for Nc1cc(C(Cl)=C(Cl)Cl)c(S(N)(=O)=O)cc1S(N)(=O)=O ?
Result: 0.0

Task: # fetch the recorded call for CCOC(=O)C1=C[C@@H](OC(CC)CC)[C@H](NC(C)=O)[C@@H](N)C1 here
Result: 0.0

Task: Entry Cc1cc(O)c2c(c1)C(=O)c1cc(O)cc(O)c1C2=O : call = ?
Result: 0.0

Task: Outcome logged for CC(C)Oc1ccc2c(=O)c(-c3ccccc3)coc2c1 in this assay:
Result: 0.0

Task: Which outcome was assigned to CN(c1nccc(=O)[nH]1)C1CCN(c2nc3ccccc3n2Cc2ccc(F)cc2)CC1 in this test?
Result: 1.0

Task: Kindly provide the recorded test outcome for the following molecule: CC1(C)CCC(C)(C)c2cc(NC(=O)c3ccc(C(=O)O)cc3)ccc21
Result: 1.0

Task: Name the outcome recorded for O=C(CCc1ccc(O)cc1)c1c(O)cc(O)cc1O in the assay.
Result: 1.0

Hello, the source for this data is PubChem BioAssay (NCATS), in case you need it.
